The reported measurements were obtained from PubChem BioAssay AID179.

System: CEM cells HIV-1 protection, formazan growth assay
MEASUREMENT NOTES: NCI AIDS Antiviral Assay
CONDITION SUMMARY: measured here: growth of uninfected CEM cells
Experimental: The ability of compounds to protect human CEM cells from HIV-1 infection is measured as a screen for new compounds capable of inhibiting the HIV virus. Five concentrations of drug were tested on uninfected and infected cells and cell growth was measured using a soluble formazan assay. […] Compounds that provided at least 50% protection were retested. Compounds that provided at least 50% protection on retest were listed as moderately active. […]
ENDPOINT LABEL: IC50 (µM)
Numbers only here, please. The scale is µM.

// solved cases for IC50 follow
>>> measured_value("O=C(O)CN1C=C(C(=O)c2cc3ccccc3n2S(=O)(=O)c2ccccc2)CCC1")
89.1
>>> measured_value("O=C(Nc1ccccc1)c1cc2cc(O)c(O)cc2cn1")
7.41

Pending compound:
Ask: Field request: IC50 | item: NC1CC(=O)c2c(Br)csc21 (centres undefined)
Reply: 50.1
